- SYSTEM_TESTED: Polyketide synthase Pks13 (Mycobacterium tuberculosis (strain ATCC 25618 / H37Rv))
- ASSAY_NAME: Mycobacterium tuberculosis Polyketide synthase 13 Thioesterase (PKS13)
- Type: functional
- Design: scale not given: in the data most compounds retested in dose-response had high values
- TEST_PARAMETERS: 30 µM
Among all 67,000 compounds or so, about 300 (0.45%) showed an effect of 50% or more. The list comes from a sample in which strong results are over-represented; it also holds close analogues and randomly drawn compounds.
Listing: Percent Effect of selected molecules
REPORTED_PROPERTY: Percent Effect (%)

- COCC(=O)NC[C@H]1C[C@@H]2CCN1C[C@@H]2CN1CCc2ccccc2C1: -21.5
- CCC(=O)NCC(CC)Oc1cccc(F)c1 (stereo unspecified): -2.34
- CN(C)C(=O)N1CC[C@]2(O)CCN(C(=O)c3ccc(C#N)nc3)C[C@@H]2C1: -13.4
- CCOc1cc(C(=O)n2cc(C)cn2)cc(OCC)c1OCC: 53.3
- O=C([C@H]1COC[C@H]2CN(C3CCCC3)C[C@H]21)N1CCCCO1: -0.965
- CCS(=O)(=O)N1CC[C@H]2O[C@H](c3nnc(C)o3)CC[C@H]21: -8.23
- CCC(CNC(=O)CNC(C)=O)Oc1cccc(F)c1 (stereo unspecified): -7.54
- N#Cc1cccnc1N1CCCC(CO)(Cc2ccc(F)cc2)C1 (stereo unspecified): -5.66
- CC(=O)c1ccc(N2CCCC(CO)(Cc3ccccc3F)C2)nc1 (stereo unspecified): -9.09
- CC(C)(C)c1nc(CNc2ccccc2SCCC(N)=O)cs1: 6.99
- CCNc1ncc(C(=O)N2CCc3c(nc(C)nc3N(C)C)C2)cn1: 50.1
- CN1C(=O)C[C@@H]2[C@@H]1CCN2S(=O)(=O)Cc1ccccc1: -11.3
- CC(=O)N1CCCN(C(=O)NC(C)c2csc3ccccc23)CC1 (stereo unspecified): -15.4
- CC(=O)c1ccc(N2CCCC(CO)(CCc3ccccc3)C2)nc1 (stereo unspecified): 55.1
- OCC1(CCOc2ccccc2)CCCN(c2ccc(Cl)cn2)C1 (stereo unspecified): 56.5
- Cc1noc(C)c1CN1C(=O)[C@H]2CC[C@@H]1CN(Cc1cscn1)C2: 7.07
- CSc1ncccc1C(=O)N1C[C@H]2CC[C@@H]1CN(c1cnccn1)C2: -2.08
- CSc1ccccc1CN1C[C@H]2C(=O)N(CC3CC3)C[C@@]2(C(=O)O)C1: -23
- N#Cc1cccc(N2CCC(CO)(CCCc3ccccc3)CC2)n1: 67.6
- CCCc1ccc(C(=O)N2CCc3c(nc(C)nc3N(C)C)C2)cc1: 6.78
- CN1CCc2c(sc3c2C(=O)NC(/C=C/c2ccccc2)N3)C1 (stereo unspecified): 33.3
- O=C(CCn1cncn1)N1C[C@H]2CC[C@@H]1CN(Cc1ccncc1)C2: 0.614
- Cc1ccnc(OC[C@]23COC[C@H]2CN(C(=O)c2cnccn2)C3)n1: -10.7
- O=S1(=O)C[C@@H]2[C@H](C1)N(Cc1ncc[nH]1)CCN2Cc1cccnc1: -6.48
- CC(C)CN1C[C@@H]2C(=O)N(C)C3(CCN(C(=O)C(C)C)CC3)[C@@H]2C1: -25.7
- CC(C)CN1CC[C@@H]2[C@@H]1CCN2C(=O)N(C)C: -18.3
- CN1CCC(c2cc(C(F)(F)F)n3ccnc3n2)CC1: -20.7
- N#Cc1cccc(N2CCCC(CO)(CCOc3ccccc3)C2)n1 (stereo unspecified): 132
- CCOC(=O)N1CCN(C(=O)c2cc(OCC)c3ccoc3c2)CC1: 22.8
- Cn1cc(CN2CC[C@@H]3[C@@H]2CCN3Cc2ccc3c(c2)OCO3)cn1: -41.2
- CS(=O)(=O)NC[C@H]1OC[C@@H]2CN(Cc3cccnc3)CC[C@@H]21: 7.73
